# testedOn: Polyketide synthase Pks13 (Mycobacterium tuberculosis (strain ATCC 25618 / H37Rv)) (UniProt I6X8D2)
# Sequence (I6X8D2 whole entry): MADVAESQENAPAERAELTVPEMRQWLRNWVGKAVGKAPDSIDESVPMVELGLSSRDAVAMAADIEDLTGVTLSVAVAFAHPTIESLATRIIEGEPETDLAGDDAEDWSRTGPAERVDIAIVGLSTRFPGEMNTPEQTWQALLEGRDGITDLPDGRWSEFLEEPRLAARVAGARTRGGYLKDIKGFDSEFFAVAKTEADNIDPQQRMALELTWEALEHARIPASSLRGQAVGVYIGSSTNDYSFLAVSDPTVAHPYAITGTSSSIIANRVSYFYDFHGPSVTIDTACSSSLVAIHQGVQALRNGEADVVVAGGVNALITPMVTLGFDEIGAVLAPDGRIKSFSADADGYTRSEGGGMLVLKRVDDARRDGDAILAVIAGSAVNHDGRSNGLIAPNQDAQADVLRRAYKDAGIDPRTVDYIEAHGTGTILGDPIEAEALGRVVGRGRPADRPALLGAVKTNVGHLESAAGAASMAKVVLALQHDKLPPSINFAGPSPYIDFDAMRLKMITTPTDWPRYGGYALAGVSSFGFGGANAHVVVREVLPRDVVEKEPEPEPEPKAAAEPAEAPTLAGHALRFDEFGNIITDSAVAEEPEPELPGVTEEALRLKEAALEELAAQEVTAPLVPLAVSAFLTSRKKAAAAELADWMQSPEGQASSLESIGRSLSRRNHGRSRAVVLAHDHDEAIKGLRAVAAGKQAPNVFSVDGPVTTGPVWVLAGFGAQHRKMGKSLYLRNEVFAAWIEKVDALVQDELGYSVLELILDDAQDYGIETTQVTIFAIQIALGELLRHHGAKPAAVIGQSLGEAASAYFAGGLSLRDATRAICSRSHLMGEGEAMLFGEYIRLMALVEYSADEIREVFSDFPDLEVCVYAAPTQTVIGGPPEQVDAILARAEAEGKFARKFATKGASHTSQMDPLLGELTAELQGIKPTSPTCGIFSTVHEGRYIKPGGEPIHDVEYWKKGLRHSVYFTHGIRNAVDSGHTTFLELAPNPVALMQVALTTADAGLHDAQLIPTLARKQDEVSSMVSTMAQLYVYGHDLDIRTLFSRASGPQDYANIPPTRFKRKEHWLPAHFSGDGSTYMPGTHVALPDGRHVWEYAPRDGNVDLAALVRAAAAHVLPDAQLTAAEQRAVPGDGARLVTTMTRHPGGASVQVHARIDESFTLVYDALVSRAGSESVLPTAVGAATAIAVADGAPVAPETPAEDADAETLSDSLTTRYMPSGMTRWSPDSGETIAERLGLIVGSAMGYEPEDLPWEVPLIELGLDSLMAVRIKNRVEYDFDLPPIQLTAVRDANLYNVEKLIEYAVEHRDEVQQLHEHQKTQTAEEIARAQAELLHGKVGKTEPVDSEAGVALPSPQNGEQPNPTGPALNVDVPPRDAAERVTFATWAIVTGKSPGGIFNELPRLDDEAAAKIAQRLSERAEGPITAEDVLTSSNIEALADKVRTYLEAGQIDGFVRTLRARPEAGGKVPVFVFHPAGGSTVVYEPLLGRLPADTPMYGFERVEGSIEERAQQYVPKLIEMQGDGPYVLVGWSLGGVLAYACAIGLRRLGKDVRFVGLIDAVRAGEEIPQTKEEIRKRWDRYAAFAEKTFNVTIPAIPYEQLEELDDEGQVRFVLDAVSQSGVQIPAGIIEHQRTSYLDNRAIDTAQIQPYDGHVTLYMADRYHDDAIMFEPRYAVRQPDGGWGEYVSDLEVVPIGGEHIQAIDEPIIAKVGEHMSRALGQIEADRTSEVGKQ
# testName: Mycobacterium tuberculosis Polyketide synthase 13 Thioesterase (PKS13)
# Assay type: functional
# Parameters: scale not given: in the data most compounds retested in dose-response had high values
# measurementParameters: 30 µM
Screen size: about 67,000 compounds; about 300 (0.45%) showed an effect of 50% or more. Only a selection was taken, and strong results are over-represented in it overall.
valueKind: Percent Effect (%)
Your answer is read as %, so omit the unit and give the number.

Ask: Item under review: "CCn1cc(-c2cc(-c3cc(CC(=O)O)cs3)nc(N)c2C#N)c(C)n1" . Reported Percent Effect?
Reply: -51.8

Ask: Item under review: "CCc1ccc(CN2CC[C@H]3C[C@H](c4nnc(C)[nH]4)O[C@@H]3C2)o1" . Reported Percent Effect?
Reply: 32

Ask: Item under review: "NC(=O)CCSc1n[nH]c(-c2ccc3c(c2)CCC3)n1" . Reported Percent Effect?
Reply: -2.85

Ask: Item under review: "CC(=O)N1CCO[C@@H]2CN(C(=O)c3ccccc3)CC[C@@H]2C1" . Reported Percent Effect?
Reply: 7.28

Ask: Item under review: "CS(=O)(=O)CCCSc1n[nH]c(-c2ccc3c(c2)CCC3)n1" . Reported Percent Effect?
Reply: 66.3

Ask: Item under review: "CN(C)C[C@@H]1CCC[C@@H]2CN(c3cccnc3)C[C@@H]21" . Reported Percent Effect?
Reply: -20.9

Ask: Item under review: "COCCN1C(=O)[C@]2(CC[C@@H]3CN(C(=O)NCC(C)C)C[C@@H]32)N=C1C" . Reported Percent Effect?
Reply: -6.17

Ask: Item under review: "CC(C)N1CCO[C@H]2CN(C(=O)c3ccncc3F)C[C@H]21" . Reported Percent Effect?
Reply: -27

Ask: Item under review: "CS(=O)(=O)CCSc1n[nH]c(-c2ccc3c(c2)CCC3)n1" . Reported Percent Effect?
Reply: 1.98

Ask: Item under review: "Cc1nn(C)c(C)c1-c1cc(-c2cc(CC(=O)O)cs2)nc(N)c1C#N" . Reported Percent Effect?
Reply: 47.9

Source of measurements: ChEMBL document CHEMBL3988442
